- assay notes: ATG_SREBP_CIS: Attagene CIS-FACTORIAL HepG2 Assay for human Sterol Regulatory Element Binding (SREBP) (AID 2282962)
- cond: HepG2 Attagene cis-factorial SREBP reporter, mRNA; actives raise or lower the signal
Activity calls are given as the source filed them. The calls were made as follows: active = hit-call score of the fitted dose curve at least 0.9, where 1 is the maximum; inactive = score below 0.9.
Possible outcomes: active, inactive

compound: CC(C)N(C(=O)SCC(Cl)=C(Cl)Cl)C(C)C
group: active
--
compound: CCCSP(=O)(OCC)Oc1ccc(Br)cc1Cl (stereo not given)
group: active
--
compound: CN(C)C(=O)Nc1cccc(C(F)(F)F)c1
group: inactive
--
compound: CCCCOC(=O)[C@@H](C)Oc1ccc(Oc2ccc(C#N)cc2F)cc1
group: inactive
--
compound: CN(C)[C@@H]1C(=O)C(C(N)=O)=C(O)[C@@]2(O)C(=O)C3=C(O)c4c(O)cccc4[C@@](C)(O)[C@H]3[C@H](O)[C@@H]12
group: inactive

###

- Read-out: Macrophage colony-stimulating factor (MCSF), CSF1 (gene 1435)
- assay notes: BSK_CASM3C_MCSF: BioMAP Diversity Plus: CASM3C Assay for Macrophage colony-stimulating factor (MCSF) Biomarker Activity (AID 2283044);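 also: M-CSF protein amount quantified by ELISA after 24 h exposure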
- cond: primary human coronary artery smooth muscle cells; actives raise or lower the signal
Active and inactive are the calls of the source. How the source made its calls: active means hit-call score of the fitted dose curve at least 0.9, where 1 is the maximum; inactive means score below 0.9.
readout kind: outcome

compound: O=C(O)c1cc(Oc2ccc(C(F)(F)F)cc2Cl)ccc1[N+](=O)[O-]
measured value: inactive
//
compound: CN(C)[C@@H]1C(=O)C(C(N)=O)=C(O)[C@@]2(O)C(=O)C3=C(O)c4c(O)cccc4[C@@](C)(O)[C@H]3[C@H](O)[C@@H]12
measured value: inactive
//
compound: CNC(=O)ON=C(C)SC
measured value: inactive
//
compound: CCc1cccc(C)c1N(C(=O)CCl)C(C)COC (configuration not stated)
measured value: inactive
//
compound: CSC1=N[C@@](C)(c2ccccc2)C(=O)N1Nc1ccccc1
measured value: inactive
//
compound: CCc1cnc(C2=NC(C)(C(C)C)C(=O)N2)c(C(=O)O)c1 (configuration not stated)
measured value: inactive
//
compound: CCOC(=O)CC(SP(=O)(OC)OC)C(=O)OCC (configuration not stated)
measured value: inactive
//
compound: Cc1ccn2nc(S(=O)(=O)Nc3c(F)cccc3F)nc2n1
measured value: inactive
//
compound: CNc1cnn(-c2cccc(C(F)(F)F)c2)c(=O)c1Cl
measured value: inactive
//
compound: Nc1c(Cl)cc([N+](=O)[O-])cc1Cl
measured value: inactive
//
compound: S=C1NCCN1
measured value: inactive
//
compound: COP(=O)(NC(C)=O)SC (configuration not stated)
measured value: inactive

###

- test target: human Matrix Metalloproteinase-7 (MMP7), MMP7 (gene 4316) (UniProt P09237)
- Sequence (P09237 whole entry, looked up): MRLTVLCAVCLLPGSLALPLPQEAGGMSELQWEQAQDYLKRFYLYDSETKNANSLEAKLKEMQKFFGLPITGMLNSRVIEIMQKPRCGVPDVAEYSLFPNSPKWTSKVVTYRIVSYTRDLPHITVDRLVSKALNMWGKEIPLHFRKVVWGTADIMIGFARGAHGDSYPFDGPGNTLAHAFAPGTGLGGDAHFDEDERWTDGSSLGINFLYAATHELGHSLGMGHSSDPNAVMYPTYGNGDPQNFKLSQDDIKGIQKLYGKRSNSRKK
- assay notes: NVS_ENZ_hMMP7: NovaScreen (NVS) Enzymatic Assay for human Matrix Metalloproteinase-7 (MMP7) (AID 2283183)
Inconclusive results are not listed. Calls of active or inactive are those of the source. How the source made its calls: active means hit-call score of the fitted dose curve at least 0.9, where 1 is the maximum; inconclusive means response in the unintended direction; inactive means score below 0.9.

compound: N#CSCSC#N
test target: human Matrix Metalloproteinase-7 (MMP7), MMP7 (gene 4316) (UniProt P09237)
AC50: inactive
//
compound: CN(C)[C@@H]1C(=O)C(C(N)=O)=C(O)[C@@]2(O)C(=O)C3=C(O)c4c(O)cccc4[C@@](C)(O)[C@H]3[C@H](O)[C@@H]12
test target: human Matrix Metalloproteinase-7 (MMP7), MMP7 (gene 4316) (UniProt P09237)
AC50: inactive
//
compound: CCOP(=S)(OCC)Oc1cc(C)nc(C(C)C)n1
test target: human Matrix Metalloproteinase-7 (MMP7), MMP7 (gene 4316) (UniProt P09237)
AC50: inactive
//
compound: CCc1cnc(C2=NC(C)(C(C)C)C(=O)N2)c(C(=O)O)c1 (stereo not given)
test target: human Matrix Metalloproteinase-7 (MMP7), MMP7 (gene 4316) (UniProt P09237)
AC50: 8.62 µM (active)
//
compound: CNC(=O)Oc1cccc2c1OC(C)(C)O2
test target: human Matrix Metalloproteinase-7 (MMP7), MMP7 (gene 4316) (UniProt P09237)
AC50: 6.07 µM (active)
